- Tested on: Saccharomyces cerevisiae BY4741 SeMeCo community
- protocol text: z-score of subpopulation abundance vs DMSO median, subpopulation auxotrophic for LU; higher = larger share of this subpopulation than in DMSO controls
- condition context: 10 µM; 24 h; SM minimal medium; subpopulation (auxotrophy): LU
Counter-ions that a name gives are not always drawn.
z-score of subpopulation abundance overview
measurement type: z-score of subpopulation abundance

# molecule, number
records = [
    ("CC(C(=O)O)c1ccc2c(c1)Cc1cccnc1O2 (stereo unspecified)", -0.35),
    ("CN(C)CCN1C(=O)c2cccc3cc(N)cc(c23)C1=O [Amonafide]", -0.78),
    ("COc1cc(O)c(C(=O)Nc2nc(C(=O)NCCN(C(C)C)C(C)C)cs2)cc1OC [Acotiamide hydrochloride]", 0.52),
    ("N[C@@H](C(=O)N[C@@H]1C(=O)N2C(C(=O)O)=C(Cl)CS[C@H]12)c1ccccc1", 0.23),
    ("Nc1nc(N)c2nc(-c3ccccc3)c(N)nc2n1", -7.06),
    ("CO[C@@H]1[C@H](OC(=O)/C=C/C=C/C=C/C=C/C(=O)O)CC[C@]2(CO2)[C@H]1[C@@]1(C)O[C@@H]1CC=C(C)C", 1.51),
    ("Cc1c(C(N)=O)cc([N+](=O)[O-])cc1[N+](=O)[O-] [Dinitolmide]", 1.05),
    ("Nc1ccc(S(=O)(=O)Nc2cnc3ccccc3n2)cc1 [Sulfaquinoxaline sodium]", 0.22),
    ("Clc1ccc(CSC(Cn2ccnc2)c2ccc(Cl)cc2Cl)cc1 (stereo unspecified) [Sulconazole Nitrate]", -2.59),
    ("CCOC(=O)c1ccc(N)cc1 [Benzocaine hydrochloride]", 0.5),
    ("C=C[C@]1(C)C[C@@H](OC(=O)CSC(C)(C)CNC(=O)[C@H](N)C(C)C)[C@]2(C)[C@H](C)CC[C@]3(CCC(=O)[C@H]32)[C@@H](C)[C@@H]1O [Valnemulin HCl]", 0.87),
    ("CCCN(CCc1cccs1)[C@H]1CCc2c(O)cccc2C1", -0.93),
    ("COC(=O)C1=C(C)NC(C)=C(C(=O)OCC(C)C)C1c1ccccc1[N+](=O)[O-] (stereo unspecified)", -0.62),
    ("C[C@]12CC[C@@H]3c4ccc(O)cc4C[C@@H](CCCCCCCCC[S+]([O-])CCCC(F)(F)C(F)(F)F)[C@H]3[C@@H]1CC[C@@H]2O (stereo partly specified)", 0.81),
    ("O=C(O)c1cn(-c2ccc(F)cc2)c2cc(N3CCNCC3)c(F)cc2c1=O [Sarafloxacin HCl]", -0.05),
    ("CC1(C)S[C@@H]2[C@H](NC(=O)[C@H](N)c3ccccc3)C(=O)N2[C@H]1C(=O)OCOC(=O)[C@@H]1N2C(=O)C[C@H]2S(=O)(=O)C1(C)C [Sultamicillin Tosylate]", -0.03),
    ("O=C(O)C1=C(CSc2nnnn2CS(=O)(=O)O)CS[C@@H]2[C@H](NC(=O)[C@H](O)c3ccccc3)C(=O)N12 [Cefonicid sodium]", 0.98),
    ("CN(C)CCCN1c2ccccc2Sc2ccc(Cl)cc21 [Chlorpromazine HCl]", -0.32),
    ("CO[C@@]1(NC(=O)Cc2cccs2)C(=O)N2C(C(=O)O)=C(COC(N)=O)CS[C@@H]21 [Cefoxitin sodium]", -0.8),
    ("CO[C@H]1C[C@@H]2CC[C@@H](C)[C@@](O)(O2)C(=O)C(=O)N2CCCC[C@H]2C(=O)O[C@H]([C@H](C)C[C@@H]2CC[C@H](n3cnnn3)[C@H](OC)C2)CC(=O)[C@H](C)/C=C(\\C)[C@@H](O)[C@@H](OC)C(=O)[C@H](C)C[C@H](C)/C=C/C=C/C=C/1C", 3.23),
    ("CC1(C)S[C@@H]2[C@H](NC(=O)[C@H](N)c3ccc(O)cc3)C(=O)N2[C@H]1C(=O)O [Amoxicillin trihydrate]", 0.61),
    ("CC(C)(C)C(=O)C(Oc1ccc(Cl)cc1)n1ccnc1 (stereo unspecified)", -2.81),
    ("CCN(CC)C(=O)N1CCN(C)CC1 [Diethylcarbamazine citrate]", 0.3),
    ("O=C(O)Cc1ccccc1Nc1c(Cl)cccc1Cl [Diclofenac acid]", -0.18),
    ("Cc1ccc2c(Cl)cc(Cl)c(O)c2n1", -2.2),
    ("CO[C@@]1(NC(=O)CSC[C@@H](N)C(=O)O)C(=O)N2C(C(=O)O)=C(CSc3nnnn3C)CS[C@@H]21 [Cefminox Sodium]", 0.8),
    ("CC/C(=C(\\c1ccccc1)c1ccc(OCCN(C)C)cc1)c1ccccc1 [Tamoxifen Citrate]", 0.35),
    ("NC12CC3CC(CC(C3)C1)C2", 0.79),
    ("Nc1ccc(/N=N/c2ccccc2)c(N)n1 [Phenazopyridine HCl]", -2.56),
    ("Oc1ccc([C@H]2COc3cc(O)ccc3C2)cc1", -0.26),
    ("CC1(C)S[C@@H]2[C@H](NC(=O)[C@H](N)c3ccc(O)cc3)C(=O)N2[C@H]1C(=O)O [Amoxicillin]", 0.41),
]

---

- Test system: Saccharomyces cerevisiae BY4741 SeMeCo community
- protocol text: z-score of subpopulation abundance vs DMSO median, subpopulation auxotrophic for L; higher = larger share of this subpopulation than in DMSO controls
- condition context: 10 µM; 24 h; SM minimal medium; subpopulation (auxotrophy): L
Structures can show the parent of a compound that is named as a salt.
measurement type: z-score of subpopulation abundance

# compound, measurement type, number
rows = [
    ("O=C1OCCN1/N=C/c1ccc([N+](=O)[O-])o1 [Furazolidone]", "z-score of subpopulation abundance", 2.57),
    ("CC[C@H]1OC(=O)[C@H](C)[C@@H](O[C@H]2C[C@@](C)(OC)[C@@H](O)[C@H](C)O2)[C@H](C)[C@@H](O[C@@H]2O[C@H](C)C[C@H](N(C)C)[C@H]2O)[C@](C)(O)C[C@@H](C)[C@@H]2N[C@@H](COCCOC)O[C@H]([C@H]2C)[C@]1(C)O [Dirithromycin]", "z-score of subpopulation abundance", 0.38),
    ("Cc1c(OCC(F)(F)F)ccnc1C[S+]([O-])c1nc2ccccc2[nH]1 (stereo not given) [Lansoprazole]", "z-score of subpopulation abundance", 1.12),
    ("Oc1ccc(Cl)c2cccnc12 [Cloxiquine]", "z-score of subpopulation abundance", -1.33),
    ("O=C(O)CCC(=O)OC[C@@H](NC(=O)C(Cl)Cl)[C@H](O)c1ccc([N+](=O)[O-])cc1 [Chloramphenicol sodium succinate]", "z-score of subpopulation abundance", 2.27),
    ("C#CCN[C@@H]1CCc2ccccc21 [Rasagiline Mesylate]", "z-score of subpopulation abundance", 1.22),
    ("Oc1c(Cl)cc(Cl)c(Cl)c1Cc1c(O)c(Cl)cc(Cl)c1Cl [Hexachlorophene]", "z-score of subpopulation abundance", -1.4),
    ("Cc1nccn1CC1CCc2c(c3ccccc3n2C)C1=O (stereo not given) [Ondansetron HCl]", "z-score of subpopulation abundance", -0.44),
    ("Nc1ccc(S(=O)(=O)Nc2nccs2)cc1 [Sulfathiazole]", "z-score of subpopulation abundance", -0.12),
    ("Cc1onc(-c2c(Cl)cccc2Cl)c1C(=O)N[C@@H]1C(=O)N2[C@@H]1SC(C)(C)[C@@H]2C(=O)O [Dicloxacillin Sodium]", "z-score of subpopulation abundance", 1.32),
    ("CO[C@@H]1[C@@H](OC(N)=O)[C@@H](O)[C@H](Oc2ccc3c(O)c(NC(=O)c4ccc(O)c(CC=C(C)C)c4)c(=O)oc3c2C)OC1(C)C [Novobiocin Sodium]", "z-score of subpopulation abundance", -0.72),
    ("CC(=O)Oc1ccc(C(=C2CCCCC2)c2ccc(OC(C)=O)cc2)cc1 [Cyclofenil]", "z-score of subpopulation abundance", -0.27),
    ("C#C[C@]1(OC(C)=O)CC[C@H]2[C@@H]3CCC4=C[C@@H](OC(C)=O)CC[C@@H]4[C@H]3CC[C@@]21C [Ethynodiol diacetate]", "z-score of subpopulation abundance", -0.15),
    ("CCn1cc(C(=O)O)c(=O)c2cc(F)c(N3CCN(C)CC3)cc21 [Pefloxacin Mesylate Dihydrate]", "z-score of subpopulation abundance", -0.36),
    ("CC[N+](C)(C)c1cccc(O)c1 [Edrophonium chloride]", "z-score of subpopulation abundance", -0.53),
]

---

- Tested on: Saccharomyces cerevisiae BY4741 SeMeCo community
- protocol text: z-score of prototroph abundance vs DMSO median; higher = larger share of this subpopulation than in DMSO controls
- condition context: 10 µM; 24 h; SM minimal medium; subpopulation (auxotrophy): Prototroph
Counter-ions that a name gives are not always drawn.
z-score of prototroph abundance overview

# compound, target system, z-score of prototroph abundance
data = [
    ("Cc1c(Nc2ncccc2C(=O)O)cccc1C(F)(F)F", "Saccharomyces cerevisiae BY4741 SeMeCo community", 0.11),
    ("Cc1ncc([N+](=O)[O-])n1CC(O)CCl (stereo not given)", "Saccharomyces cerevisiae BY4741 SeMeCo community", 0.34),
    ("Nc1ccc(S(=O)(=O)Nc2ncccn2)cc1 [Sodium sulfadiazine]", "Saccharomyces cerevisiae BY4741 SeMeCo community", -0.25),
    ("NC(=O)c1cnccn1 [Pyrazinamide]", "Saccharomyces cerevisiae BY4741 SeMeCo community", -0.04),
    ("O=C(O)c1cn(C2CC2)c2cc(N3CCNCC3)c(F)cc2c1=O [Ciprofloxacin hydrochloride hydrate]", "Saccharomyces cerevisiae BY4741 SeMeCo community", -0.74),
]
